Each entry below carries its reported viability at 72 h, 10 µM.
- methodNotes: Cytotoxicity against human MCF7 cells assessed as cell growth at 10 uM cotreated with G6PD inhibitor 6-AN after 72 hrs by MTT assay relative to control
- Type: cell-based
I only need the number, in %, no unit after it.

COc1cc(NC(C)CCCNC(=O)NC(C(=O)NC(c2ccccc2)c2ccccc2)c2ccc(Cl)cc2)c2ncccc2c1 (configuration not stated) : 65

Here is another compound to look at.
Incoming: Please give measured viability at 72 h, 10 µM of the following entry: COc1cc(NC(C)CCCNC(=O)NC(C(=O)NC(c2ccccc2)c2ccc(Cl)cc2)c2ccc(Cl)cc2)c2ncccc2c1 (configuration not stated)
Outgoing: 76

* * *

Each entry below carries its reported selectivity ratio.
- methodNotes: Selectivity index, ratio of IC50 for rat L6 cells to IC50 for erythrocytic stage of Plasmodium falciparum NF54
- Format: toxicity
- experimentalSetup: read-out: Ratio IC50

COc1ccc(/C(=N/NC(=O)NCCCC(C)Nc2cc(OC)cc3cccnc23)c2ccccc2)cc1 (stereo not drawn) : > 47.6
COc1cc(NC(C)CCCNC(=O)/C=C/c2ccc(OC)c(OC)c2)c2ncccc2c1 (stereo not drawn) : > 18.5

Incoming: Please give measured selectivity ratio of the following entry: COc1cc(NC(C)CCCNC(=O)NCCNC(c2ccccc2)(c2ccccc2)c2ccccc2)c2ncccc2c1 (stereo not drawn)
Outgoing: > 114

* * *

- Tested on: L6
- methodNotes: Cytotoxicity against rat L6 cells assessed as reduction in cell viability after 70 hrs by Alamar blue assay
- Format: cell-based
- experimentalSetup: L6, 70 h
pIC50: −log10 of the molar value.
Each entry below carries its reported pIC50.

Below, each entry is followed by its recorded pIC50 result.
COc1cc(NC(C)CCCNC(=O)NC(C(=O)N(C)C(c2ccccc2)c2ccccc2)c2ccccc2)c2ncccc2c1 (stereo not drawn) : < 3.85
COc1cc(NC(C)CCCNC(=O)NNC(=O)NCCNC(c2ccccc2)(c2ccccc2)c2ccccc2)c2ncccc2c1 (stereo not drawn) : < 4.00

Here is another compound to look at.
Incoming: Please give measured pIC50 of the following entry: COc1ccc(C(=NNC(=O)NCCCC(C)Nc2cc(OC)cc3cccnc23)c2ccc(OC)cc2)cc1 (stereo not drawn)
Outgoing: < 3.74

* * *

Each entry below carries its reported pIC50.
- Test system: Plasmodium falciparum
- methodNotes: Antiplasmodial activity against erythrocytic stage of Plasmodium falciparum NF54 assessed as reduction in [3H]hypoxanthine incorporation after 48 hrs by liquid scintillation counting method
- Type: functional, organism-based
Scale for pIC50: -log10 of concentration given in mol/L; no unit attached.

COc1cc(NC(C)CCCNC(=O)NNC(=O)NCCCO)c2ncccc2c1 (centres undefined) : 4.23
COc1cc(NC(C)CCCNC(=O)NC2CCCCC2)c2ncccc2c1 (centres undefined) : 4.38
COc1cc(NC(C)CCCNC(=O)NCCO)c2ncccc2c1 (centres undefined) : 4.56
COc1cc(NC(C)CCCNC(=O)NNC(=O)NC2CCCCC2)c2ncccc2c1 (centres undefined) : 4.33
COc1cc(NC(C)CCCNC(=O)NNC(=O)NC2CCCC2)c2ncccc2c1 (centres undefined) : 4.12

Incoming: Please give measured pIC50 of the following entry: COc1cc(NC(C)CCCNC(=O)NNC(=O)/C=C/c2cc(OC)c(OC)c(OC)c2)c2ncccc2c1 (centres undefined)
Outgoing: 5.35

Incoming: Please give measured pIC50 of the following entry: COc1cc(NC(C)CCCNC(=O)NNC(=O)Nc2ccc(Br)cc2)c2ncccc2c1 (centres undefined)
Outgoing: 4.75

Incoming: Please give measured pIC50 of the following entry: COc1cc(NC(C)CCCNC(=O)N(C2CCCCC2)C2CCCCC2)c2ncccc2c1 (centres undefined)
Outgoing: 5.09
